FYI, the data here is from ChEMBL document CHEMBL4428102.

biological target: Gonadotropin-releasing hormone receptor (Homo sapiens, UniProt P30968); assay: Antagonist activity against human GnRH receptor expressed in HEK293 cells co-transfected with pGL4-NFAT promoter AP1-luc assessed as inhibition of 20 nM GnRH-induced NFAT activation pre-incubated for 1 hr before GnRH stimulation and measured after 6 hrs by luciferase reporter gene assay; type: cell-based
pIC50: −log10 of the molar value.
Measurement name: pIC50

| Compound smiles | Measurement name | Measured number |
| --- | --- | --- |
| Cc1ccc(CN2CCN(c3c(C)n(Cc4c(F)cccc4C(F)(F)F)c(=O)n(C[C@H](N)c4ccccc4)c3=O)CC2)cn1 | pIC50 | 5.77 |
| Cc1c(N2CCN(Cc3nccs3)CC2)c(=O)n(C[C@H](N)c2ccccc2)c(=O)n1Cc1c(F)cccc1C(F)(F)F | pIC50 | 5.78 |
| CCOP(=O)(O)CCCN[C@@H](Cn1c(=O)c(N2CCN(Cc3ccc(C(F)(F)F)o3)CC2)c(C)n(Cc2c(F)cccc2C(F)(F)F)c1=O)c1ccccc1 | pIC50 | 6.74 |

1: Cc1c(N2CCN(Cc3cncs3)CC2)c(=O)n(C[C@H](N)c2ccccc2)c(=O)n1Cc1c(F)cccc1C(F)(F)F
2: Cc1c(N2CCN(Cc3cccnc3)CC2)c(=O)n(C[C@H](N)c2ccccc2)c(=O)n1Cc1c(F)cccc1C(F)(F)F
Could you determine which record has the numerically smaller pIC50? Candidates: 1 and 2 Which one? Tell me its label.
1

---

target: Gonadotropin-releasing hormone receptor (Homo sapiens, UniProt P30968); test: Displacement of [125I]D-Trp6-LHRH from human GnRH receptor expressed in CHO-K1 cell membranes incubated for 1 hr by competitive binding assay
pIC50: −log10 of the molar value.
Measurement name: pIC50

Answered examples (5):
| Molecule | Measurement name | Measured number |
| --- | --- | --- |
| Cc1c(N2CCN(Cc3ccc(C#N)o3)CC2)c(=O)n(C[C@H](N)c2ccccc2)c(=O)n1Cc1c(F)cccc1C(F)(F)F | pIC50 | 9.77 |
| Cc1c(N2CCN(Cc3cnccn3)CC2)c(=O)n(C[C@H](N)c2ccccc2)c(=O)n1Cc1c(F)cccc1C(F)(F)F | pIC50 | 7.70 |
| CCOP(=O)(O)CCCN[C@@H](Cn1c(=O)c(N2CCN(Cc3ccc(C(F)(F)F)o3)CC2)c(C)n(Cc2c(F)cccc2C(F)(F)F)c1=O)c1ccccc1 | pIC50 | 8.74 |
| Cc1c(N2CCN(Cc3cccc(C(N)=O)c3)CC2)c(=O)n(C[C@H](N)c2ccccc2)c(=O)n1Cc1c(F)cccc1C(F)(F)F | pIC50 | 8.71 |
| Cc1c(N2CCN(Cc3ccc(F)cc3)CC2)c(=O)n(C[C@H](N)c2ccccc2)c(=O)n1Cc1c(F)cccc1F | pIC50 | 7.31 |

I: COc1cccc(CN2CCN(c3c(C)n(Cc4c(F)cccc4F)c(=O)n(C[C@H](N)c4ccccc4)c3=O)CC2)c1
II: Cc1c(N2CCCC(C)C2)c(=O)n(C[C@H](N)c2ccccc2)c(=O)n1Cc1c(F)cccc1F (stereo not given in full)
III: Cc1c(N2CCN(Cc3cccs3)CC2)c(=O)n(C[C@H](N)c2ccccc2)c(=O)n1Cc1c(F)cccc1C(F)(F)F
Put the items in order so that reported pIC50 rises from first to last. Reply format: the labels, ordered as requested.
II, I, III
(II: 7.10, I: 7.83, III: 8.90)

---

test: AUC (infinity) in beagle dog at 10 mg/kg, po by mass spectrometry; format: ADME, organism-based, Canis lupus familiaris; set-up: dose 10 mg/kg, time infinity, route oral; conditions: in vivo
Measurement name: AUC(0-inf) (ng·h/mL)
Numeric answer only, unit ng·h/mL assumed.

Data request, read-out AUC(0-inf), for "Cc1c(N2CCN(Cc3ccc(C(F)(F)F)o3)CC2)c(=O)n(C[C@H](NCCCC(=O)O)c2ccccc2)c(=O)n1Cc1c(F)cccc1C(F)(F)F.Cl"
9600

---

assay: Cmax in castrated male cynomolgus monkey at 30 mg/kg, po administered as single dose; assay type: ADME, organism-based, Macaca fascicularis; parameters: dose 30 mg/kg, route oral; conditions: in vivo
Measurement name: Cmax (µg/mL)
The reply should contain only the number, in µg/mL.

Param item = "Cc1c(N2CCN(Cc3ccc(C(F)(F)F)o3)CC2)c(=O)n(C[C@H](NCCCC(=O)O)c2ccccc2)c(=O)n1Cc1c(F)cccc1C(F)(F)F.Cl" ; retrieve measured Cmax.
5.5

---

assay: AUC in castrated male cynomolgus monkey at 30 mg/kg, po administered as single dose; format: ADME, organism-based, Macaca fascicularis; settings: in vivo
Measurement name: AUC (ng·h/mL)
// units = ng·h/mL; emit number, no label

Record request: AUC value, item "Cc1c(N2CCN(Cc3ccc(C(F)(F)F)o3)CC2)c(=O)n(C[C@H](NCCCC(=O)O)c2ccccc2)c(=O)n1Cc1c(F)cccc1C(F)(F)F.Cl"
37000

---

assay: Half life in Sprague-Dawley rat at 10 mg/kg, po by mass spectrometry; assay type: ADME, organism-based; conditions: in vivo
Measurement name: half-life (h)
The reply should be a number in h, with the unit left off.

Which half-life reading was recorded for the compound "Cc1c(N2CCN(Cc3ccc(C(F)(F)F)o3)CC2)c(=O)n(C[C@H](NCCCC(=O)O)c2ccccc2)c(=O)n1Cc1c(F)cccc1C(F)(F)F.Cl" ?
1.9

---

molecular target: Gonadotropin-releasing hormone receptor (Macaca mulatta, UniProt Q8SPZ1); experiment: Displacement of [125I]D-Trp6-LHRH from monkey GnRH receptor expressed in HEK293 cell membranes incubated for 1 hr by competitive binding assay
Sequence (Q8SPZ1 whole entry): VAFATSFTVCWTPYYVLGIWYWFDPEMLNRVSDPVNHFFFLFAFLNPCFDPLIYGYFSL
Measurement name: pIC50
In simple prose, pIC50 is minus the logarithm base ten of a concentration in moles per litre.

Lookup: pIC50 / Gonadotropin-releasing hormone receptor (Macaca mulatta, UniProt Q8SPZ1) / "Cc1c(N2CCN(Cc3ccc(C(F)(F)F)o3)CC2)c(=O)n(C[C@H](NCCCC(=O)O)c2ccccc2)c(=O)n1Cc1c(F)cccc1C(F)(F)F"
8.43

---

assay: Oral bioavailability in beagle dog at 10 mg/kg by mass spectrometry; type: ADME, organism-based, Canis lupus familiaris; details: in vivo
Measurement name: bioavailability (%)
Give the number; % is assumed, so skip it.

Entry "Cc1c(N2CCN(Cc3ccc(C(F)(F)F)o3)CC2)c(=O)n(C[C@H](NCCCC(=O)O)c2ccccc2)c(=O)n1Cc1c(F)cccc1C(F)(F)F.Cl" has what bioavailability?
52.6

---

Target: UniProtKB P30968
Sequence (P30968 whole entry): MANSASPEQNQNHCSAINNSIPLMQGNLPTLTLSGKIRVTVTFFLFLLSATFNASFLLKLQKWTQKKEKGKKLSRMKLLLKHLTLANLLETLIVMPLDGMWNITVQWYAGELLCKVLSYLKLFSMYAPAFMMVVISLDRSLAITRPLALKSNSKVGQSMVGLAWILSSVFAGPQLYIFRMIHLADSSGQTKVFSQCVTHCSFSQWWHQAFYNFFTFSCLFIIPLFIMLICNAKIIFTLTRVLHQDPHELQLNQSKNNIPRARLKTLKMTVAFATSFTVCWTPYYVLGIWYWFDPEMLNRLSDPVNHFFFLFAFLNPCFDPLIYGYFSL
Test: Displacement of [125I]D-Trp6-LHRH from human GnRH receptor expressed in CHO-K1 cell membranes incubated for 1 hr by competitive binding assay
Catalogue of IC50 values

| Molecule | IC50 |
| --- | --- |
| Cc1c(N2CCN(Cc3cccc(C(=O)O)c3)CC2)c(=O)n(C[C@H](N)c2ccccc2)c(=O)n1Cc1c(F)cccc1C(F)(F)F | > 100 nM |

For the molecule "Cc1c(N2CCN(Cc3ccc(C(F)(F)F)o3)CC2)c(=O)n(C[C@H](NCCCP(=O)(O)O)c2ccccc2)c(=O)n1Cc1c(F)cccc1C(F)(F)F" , what IC50 is on record?
1.2 nM

Would you kindly share the measured IC50 for "Cc1c(N2CCN(C(=O)c3ccccc3)CC2)c(=O)n(C[C@H](N)c2ccccc2)c(=O)n1Cc1c(F)cccc1F" ?
> 100 nM

Fill blank: measured IC50 of the molecule "Cc1c(N2CCN(Cc3ccc(C(F)(F)F)cc3)CC2)c(=O)n(C[C@H](N)c2ccccc2)c(=O)n1Cc1c(F)cccc1F" is ____.
65.7 nM

---

assay: Tmax in castrated cynomolgus monkey at 10 mg/kg, po by mass spectrometry; assay type: ADME, organism-based, Macaca fascicularis; conditions: male, in vivo
Measurement name: Tmax (h)
Form entry: value (h) — number only.

State the recorded Tmax for this entry: "Cc1c(N2CCN(Cc3ccc(C(F)(F)F)o3)CC2)c(=O)n(C[C@H](NCCCC(=O)O)c2ccccc2)c(=O)n1Cc1c(F)cccc1C(F)(F)F.Cl"
1.7

---

target: CYP3A4 (Homo sapiens, UniProt P08684); experiment: Inhibition of human recombinant CYP3A4 expressed in baculosomes at 10 uM incubated for 30 mins using BOMR substrate by fluorescence based assay; assay type: ADME; details: probe BOMR
Sequence (P08684 whole entry): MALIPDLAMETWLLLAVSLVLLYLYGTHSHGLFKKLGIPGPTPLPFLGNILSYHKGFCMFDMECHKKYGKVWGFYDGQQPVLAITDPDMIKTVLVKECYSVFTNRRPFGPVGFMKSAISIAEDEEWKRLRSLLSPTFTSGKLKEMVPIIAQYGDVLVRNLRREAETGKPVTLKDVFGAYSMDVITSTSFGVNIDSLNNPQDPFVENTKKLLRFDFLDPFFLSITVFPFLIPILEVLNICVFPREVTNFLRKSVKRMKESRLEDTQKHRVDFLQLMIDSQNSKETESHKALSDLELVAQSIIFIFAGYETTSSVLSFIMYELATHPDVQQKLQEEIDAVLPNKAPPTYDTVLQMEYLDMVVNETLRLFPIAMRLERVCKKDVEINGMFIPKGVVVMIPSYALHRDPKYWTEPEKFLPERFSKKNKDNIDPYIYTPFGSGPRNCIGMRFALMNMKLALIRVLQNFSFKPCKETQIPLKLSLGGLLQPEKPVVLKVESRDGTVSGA
Measurement name: inhibition at 0.5 h, 10 µM (%)

These recorded examples may help you get a feel for the data.
| Compound smiles | Unit info | inhibition at 0.5 h, 10 µM |
| --- | --- | --- |
| Cc1c(N2CCN(Cc3cccc([N+](=O)[O-])c3)CC2)c(=O)n(C[C@H](N)c2ccccc2O)c(=O)n1Cc1c(F)cccc1C(F)(F)F | % | 97 |
| Cc1c(N2CCN(Cc3cccc(C(N)=O)c3)CC2)c(=O)n(C[C@H](N)c2ccccc2)c(=O)n1Cc1c(F)cccc1C(F)(F)F | % | 93 |
| Cc1c(N2CCN(Cc3cccc(C(=O)NCCCC(=O)O)c3)CC2)c(=O)n(C[C@H](N)c2ccccc2)c(=O)n1Cc1c(F)cccc1C(F)(F)F | % | 66 |
| Cc1c(N2CCN(Cc3ccc(C(F)(F)F)o3)CC2)c(=O)n(C[C@H](NCCCC(=O)O)c2ccccc2)c(=O)n1Cc1c(F)cccc1C(F)(F)F | % | 21 |
| Cc1c(N2CCN(Cc3ccc(C(F)(F)F)o3)CC2)c(=O)n(C[C@H](NCCCP(=O)(O)O)c2ccccc2)c(=O)n1Cc1c(F)cccc1C(F)(F)F | % | 16 |
| Cc1c(N2CCN(Cc3cccc(C(=O)NCC(=O)O)c3)CC2)c(=O)n(C[C@H](N)c2ccccc2)c(=O)n1Cc1c(F)cccc1C(F)(F)F | % | 74 |
| Cc1c(N2CCN(Cc3ccc(C(F)(F)F)o3)CC2)c(=O)n(C[C@H](NCCCS(=O)(=O)O)c2ccccc2)c(=O)n1Cc1c(F)cccc1C(F)(F)F | % | 45 |
| Cc1c(N2CCN(Cc3cccc(C(F)(F)F)c3)CC2)c(=O)n(C[C@H](N)c2ccccc2)c(=O)n1Cc1c(F)cccc1C(F)(F)F | % | 96 |
| Cc1c(N2CCN(Cc3ccc(C(F)(F)F)o3)CC2)c(=O)n(C[C@H](N)c2ccccc2)c(=O)n1Cc1c(F)cccc1C(F)(F)F | % | 96 |
| Cc1c(N2CCN(Cc3cccc([N+](=O)[O-])c3)CC2)c(=O)n(C[C@H](NCCCC(=O)O)c2ccccc2)c(=O)n1Cc1c(F)cccc1C(F)(F)F | % | 17 |

P: Cc1c(N2CCN(Cc3cccc(C(F)(F)F)c3)CC2)c(=O)n(C[C@H](NCCCC(=O)O)c2ccccc2)c(=O)n1Cc1c(F)cccc1C(F)(F)F
Q: Cc1c(N2CCN(Cc3cccc([N+](=O)[O-])c3)CC2)c(=O)n(C[C@H](N)c2ccccc2OCCCC(=O)O)c(=O)n1Cc1c(F)cccc1C(F)(F)F
Lab log: flag the item ( P or Q ) with the smaller inhibition at 0.5 h, 10 µM figure. Could you answer with the label of the item you picked?
P
(P: 22%, Q: 57%)
